- Test system: 1N4R p-tau
- Construct: made in house; host or cells: E. coli (PIMAX system)
- METHOD: p-tau aggregation modulator screen of 1280-compound library (ThS fluorescence net change over 16 h);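 further: 30 µM compound with 6 µM p-tau over 16 h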
- Assay type: biochemical
- MEASUREMENT SETUP: library screen, ThS fluorescence net change over 16 h with p-tau
Structures can show the parent of a compound that is named as a salt.
RECORDED ENDPOINT: ThS net change

Below, 3 compounds whose answers are already recorded.
Clc1ccc(C(Cn2ccnc2)OCc2c(Cl)cccc2Cl)c(Cl)c1 (centres unmarked) : 296
CCN(CC)CCNc1ccc(CO)c2sc3ccccc3c(=O)c12 : 171
CCn1cc(C(=O)O)c(=O)c2cc3c(cc21)OCO3 : 313

Looking up `O=C(CCCN1CCC2(CC1)C(=O)NCN2c1ccccc1)c1ccc(F)cc1` , I found its ThS net change recorded as 313

Value of ThS net change reported for the compound CN(C)CCCN1c2ccccc2Sc2ccccc21 [Promazine hydrochloride] is 306

The recorded ThS net change for OC(c1cc(C(F)(F)F)nc2c(C(F)(F)F)cccc12)C1CCCCN1 (centres unmarked) [Mefloquine hydrochloride] is 304

Record `O=c1[nH]cnc2c1ncn2[C@H]1CC[C@@H](CO)O1` , field ThS net change: 321

Record COC(=O)C1=C(C)NC(C)=C(C(=O)O[C@@H]2CCCN(Cc3ccccc3)C2)[C@@H]1c1cccc([N+](=O)[O-])c1.Cl (racemic) [Benidipine hydrochloride] . Reported ThS net change: 259

* * *

- Test system: SH-SY5Y cells
- METHOD: cells
Counter-ions that a name gives are not always drawn.
RECORDED ENDPOINT: p-tau cytotox

COC(=O)C1=C(C)NC(C)=C(C(=O)OCC(C)C)C1c1ccccc1[N+](=O)[O-] (stereo not shown) [Nisoldipine, nisoldipine, reference compound] : No change
CCC(C)n1ncn(-c2ccc(N3CCN(c4ccc(OCC5COC(Cn6cncn6)(c6ccc(Cl)cc6Cl)O5)cc4)CC3)cc2)c1=O (stereo not shown) [Itraconazole, itraconazole, reference compound] : No change
CC(C)/N=c1\cc2n(-c3ccc(Cl)cc3)c3ccccc3nc-2cc1Nc1ccc(Cl)cc1 [Clofazimine, clofazimine, reference compound] : No change
NNc1nncc2ccccc12 [Hydralazine, hydralazine hydrochloride] : No change

* * *

- Tested on: 1N4R p-tau
- Construct: made in house; host or cells: E. coli (PIMAX system)
- METHOD: p-tau aggregation modulator screen of 1280-compound library (ThS fluorescence net change over 16 h);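 further: 30 µM compound with 6 µM p-tau over 16 h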
- Format: biochemical
- MEASUREMENT SETUP: library screen, ThS fluorescence net change over 16 h with p-tau
Structures can show the parent of a compound that is named as a salt.
RECORDED ENDPOINT: ThS net change

Record CCN(CC)CCNC(=O)c1cc(Cl)c(N)cc1OC.Cl [Metoclopramide monohydrochloride] , field ThS net change: 299

Given item COC(=O)C1=C(C#N)NC(C)=C(C(=O)OC(C)C)C1c1cccc([N+](=O)[O-])c1 (stereo not shown) , the value recorded as its ThS net change is 266

Per the records, this compound ( `COc1ccc(C(Cl)=C(c2ccc(OC)cc2)c2ccc(OC)cc2)cc1` ) has ThS net change equal to 235

Form: compound = CCC(C)n1ncn(-c2ccc(N3CCN(c4ccc(OCC5COC(Cn6cncn6)(c6ccc(Cl)cc6Cl)O5)cc4)CC3)cc2)c1=O (stereo not shown) [Itraconazole, itraconazole, reference compound] ; ThS net change = -31

compound COc1cc2nc(N3CCN(C(=O)C4COc5ccccc5O4)CC3)nc(N)c2cc1OC (stereo not shown) [Doxazosin mesylate] , ThS net change observed: 310
